Assay: Biodistribution in tumor of mouse B16F0 cells implanted C57BL/6J mouse assessed per gram of tissue at 0.4 to 5.5 MBq, iv after 3 hrs by gamma counter
Type: ADME, organism-based, Neoplasm
Conditions: in vivo
Measured Drug uptake, listed per entry for reference.
ATTRIBUTE MEASURED: Drug uptake (%)

INSERT INTO results (smiles_repr, test_value) VALUES
  ('CCN(CC)CCNC(=O)c1ccc([18F])nc1', 7.8),
  ('CCCCN(C)CCCCNC(=O)c1ccc([18F])nc1', 5.3),
  ('CCN(CC)CCNC(=O)c1cccnc1[18F]', 17.3),
  ('CCN(CC)CCNC(=O)c1ccnc([18F])c1', 8.8);
